# System: OVCAR-8 cell line
# experimental protocol: MTT cytotoxicity assay
# details: read-out: IC50 OVCAR-8; 120 h incubation
readout type: IC50

molecule	test result
CCCCCCCCCCCCCCCC(=O)[O][Pt]1([O]C(=O)CCC(=O)O)[O]C(=O)C(=O)[O]1.NC1CCCCC1N [OXA-PAL-SUCC]	3.67 µM
CCCCCCCCCCCCCCCC(=O)[O][Pt]12([O]C(C)=O)([NH]C3CCCCC3[NH]1)[O]C(=O)C(=O)[O]2 (stereo not shown) [OXA-PAL-ACT, oxaliplatin palmitate acetate]	0.46 µM
CCCCCCCCCCCCCCCC(=O)[O][Pt]1([O]C(=O)CCCCCCCCCCCCCCC)[O]C(=O)C(=O)[O]1.NC1CCCCC1N [OXADP, oxaliplatin dipalmitate]	17.6 µM
O=C1[O][Pt]2([NH][C@@H]3CCCC[C@H]3[NH]2)[O]C1=O [Oxaliplatin, reference compound]	9.44 µM
